# SYSTEM_TESTED: human glucagon receptor (human) (UniProt P47871)
# Sequence (P47871 26-477): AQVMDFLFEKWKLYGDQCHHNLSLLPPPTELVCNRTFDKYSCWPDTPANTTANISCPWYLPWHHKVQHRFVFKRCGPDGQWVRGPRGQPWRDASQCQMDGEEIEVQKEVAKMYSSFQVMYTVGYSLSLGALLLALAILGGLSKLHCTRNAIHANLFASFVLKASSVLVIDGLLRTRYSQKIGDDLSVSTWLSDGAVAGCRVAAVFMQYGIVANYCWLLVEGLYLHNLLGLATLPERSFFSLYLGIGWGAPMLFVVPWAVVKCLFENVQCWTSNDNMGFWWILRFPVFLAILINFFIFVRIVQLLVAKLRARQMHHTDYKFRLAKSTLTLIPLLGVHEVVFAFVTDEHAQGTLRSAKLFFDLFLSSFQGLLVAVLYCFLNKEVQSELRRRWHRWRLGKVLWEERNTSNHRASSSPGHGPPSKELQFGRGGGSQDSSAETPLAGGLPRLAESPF
# ASSAY_INFO: cell-based or functional assay
PROPERTY_NAME: Relative cAMP EC50 (nM)
Express your answer in nM, writing the number without its unit.

Completed entries (count: 5):
| BINDER | REPORTED |
| --- | --- |
| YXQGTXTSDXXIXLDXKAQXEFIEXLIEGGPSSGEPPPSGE (non-natural residues, (γGlu)2-C18 diacid lysine acylation, C-terminal amide; synthetic construct; SITE 2: note = 2-Aminoisobutyric Acid; SITE 6: note = alpha-methyl-L-phenylalanine; SITE 10: note = 3-(4-Pyridyl)-L-alanine; SITE 11: note = alpha-methyl-L-serine; SITE 13: note = alpha-methyl-leucine; SITE 16: note = L-ornithine; SITE 17: note = Lysine is chemically modified th) [Example 1171] | 2.19 |
| YXQGTXTSDXXIXLDXKAAXEFIEXLIEGGPSSGAPPPSGSE (synthetic construct; SITE 2: note = 2-Aminoisobutyric Acid; SITE 6: note = alpha-methyl-2-fluoro-L-phenylalanine; SITE 10: note = 3-(4-Pyridyl)-L-alanine; SITE 11: note = alpha-methyl-L-serine; SITE 13: note = alpha-methyl-leucine; SITE 16: note = L-ornithine; SITE 17: note = Lysine is chemically mo) [Example 702] | 1.5 |
| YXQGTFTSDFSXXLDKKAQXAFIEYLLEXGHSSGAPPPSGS (Aib, Orn, αMeL; lipidated Lys; C-terminal amide; synthetic construct; SITE 2: note = 2-Aminoisobutyric Acid; SITE 12: note = L-ornithine; SITE 13: note = alpha-methyl-leucine; SITE 17: note = Lysine is chemically modified through conjugation of the epsilon-amino group of the Lysine side chain with (2-[2-(2-Amino-ethoxy)-ethoxy]-acetyl)-(gamma-Glu)) [Example 243] | 6.86 |
| YXQGTFTSDFSQXLDKKAQXAFIEYLLEAGPSSXAPPPSGT (synthetic construct; SITE 2: note = 2-Aminoisobutyric Acid; SITE 13: note = alpha-methyl-leucine; SITE 17: note = Lysine is chemically modified through conjugation of the epsilon-amino group of the Lysine side chain with (2-[2-(2-Amino-ethoxy)-ethoxy]-acetyl)-(gamma-Glu)-CO-(CH2) 16-CO2H; SITE 20: n) [Example 779] | 4.58 |
| YXQGTXTSDXXIXLDXKAQXEFIEXLIEGGPPSXXPPPEGE (non-natural residues; lipidated Lys; C-terminal amide; synthetic construct; SITE 2: note = 2-Aminoisobutyric Acid; SITE 6: note = alpha-methyl-2-fluoro-L-phenylalanine; SITE 10: note = 3-(4-Pyridyl)-L-alanine; SITE 11: note = alpha-methyl-L-serine; SITE 13: note = alpha-methyl-leucine; SITE 16: note = L-ornithine; SITE 17: note = Lysine is chemically mo) [Example 1194] | 2.02 |

Attention now shifts to the item below.
IN: If you can, please state the reported Relative cAMP EC50 value of YXQGTFTSDYSQXLDKKAQXAFIEYLLEGGESSGAPPPSGS (synthetic construct; SITE 2: note = 2-Aminoisobutyric Acid; SITE 13: note = alpha-methyl-leucine; SITE 17: note = Lysine is chemically modified through conjugation of the epsilon-amino group of the Lysine side chain with (2-[2-(2-Amino-ethoxy)-ethoxy]-acetyl)-(gamma-Glu)-CO-(CH2) 16-CO2H; SITE 20: n) [Example 362] .
OUT: 6.04
